Origin of the recorded values: PubChem BioAssay (EPA / NIEHS)

test: BSK_3C_Vis: BioMAP Diversity Plus: 3C Assay for Morphology Visualization (AID 2283025);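 further: fitted both ways so gain or loss versus DMSO counts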
test-parameters: primary human endothelial cells (HUVEC)
Method: BSK_3C is a cell-based, multiplexed-readout assay that uses umbilical vein endothelium, a human vascular primary cell, with measurements taken at 24 hours after chemical dosing in a 96-well plate.BSK_3C_Vis is an assay component measured in the BSK_3C assay. It measures NA related to cell morphology using light microscopy technology.Data from the assay component BSK_3C_Vis was analyzed into 1 assay endpoint. […]
Activity calls are given as the source filed them. How the source made its calls: active means hit-call score of the fitted dose curve at least 0.9, where 1 is the maximum; inactive means score below 0.9.
Choose the fitting class; nothing outside true for active, false for inactive is accepted.

Here's what some known entries look like.
{"compound": "COC(=O)C=C(C)OP(=O)(OC)OC", "category-label": "false"}
{"compound": "CCCCOC(=O)c1ccccc1C(=O)OCCCC", "category-label": "false"}
{"compound": "CC(C)C1(C)N=C(c2nc3ccccc3cc2C(=O)O)NC1=O (configuration not stated)", "category-label": "false"}
{"compound": "Fc1ccc(Oc2ccnc3cc(Cl)cc(Cl)c23)cc1", "category-label": "true"}
{"compound": "CON(C)C(=O)Nc1ccc(Cl)c(Cl)c1", "category-label": "false"}

Outcome logged for `CNC(=S)S` in this assay: true

Call for entry `COc1nc(C)nc(NC(=O)NS(=O)(=O)c2ccccc2CCC(F)(F)F)n1` : false
